Record form. Attribute: Ki. Fill in for each entry.
Measured On: Transporter (Rattus norvegicus, UniProt Q63380)
Sequence (Q63380 whole entry): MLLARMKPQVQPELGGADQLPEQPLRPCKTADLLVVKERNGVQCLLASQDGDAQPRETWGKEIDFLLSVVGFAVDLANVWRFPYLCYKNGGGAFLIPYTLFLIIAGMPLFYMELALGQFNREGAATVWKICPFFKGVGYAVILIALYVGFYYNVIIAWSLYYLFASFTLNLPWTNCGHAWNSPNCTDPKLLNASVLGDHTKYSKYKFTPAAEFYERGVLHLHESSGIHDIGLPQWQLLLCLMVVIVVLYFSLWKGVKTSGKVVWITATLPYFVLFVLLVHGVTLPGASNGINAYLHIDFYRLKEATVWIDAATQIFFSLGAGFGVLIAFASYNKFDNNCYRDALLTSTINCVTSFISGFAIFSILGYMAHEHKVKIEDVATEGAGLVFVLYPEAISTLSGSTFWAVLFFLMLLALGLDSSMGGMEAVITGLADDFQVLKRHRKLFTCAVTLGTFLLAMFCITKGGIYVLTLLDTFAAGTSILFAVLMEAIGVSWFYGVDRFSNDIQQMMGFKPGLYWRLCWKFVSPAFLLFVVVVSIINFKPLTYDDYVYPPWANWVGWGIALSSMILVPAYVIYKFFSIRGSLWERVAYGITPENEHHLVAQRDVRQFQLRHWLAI
Assay Comment: Displacement of [3H]-nisoxetine from NET in rat hippocampal membrane incubated for 8 hrs by liquid scintillation counting method
Format: cell membranes, Hippocampus
The answer is to be given in µM; state only the numeric part.

Find Ki (Transporter (Rattus norvegicus, UniProt Q63380)) for the entry CNCCC(Oc1cccc2c1OCO2)c1ccc(Cl)c(Cl)c1 (stereo not given)
0.015

Try `CN(C)CC[C@@H](Oc1cccc2c1OCO2)c1ccc(F)cc1.O=C(O)C(=O)O` next.
0.0023

Let us now turn to CNCCC(Oc1cccc2c1OCO2)c1cccc(C)c1 (stereo not given)
0.0204

For CNCCC(Oc1cccc2c1OCO2)c1ccc(Cl)cc1 (stereo not given) then?
0.0148

Next entry: CNCCC(Oc1cccc2c1OCO2)c1ccc2c(c1)OCO2 (stereo not given)
0.0284

Could you do the same for CN(C)CCC(Oc1cccc2c1OCO2)c1ccc(F)c(F)c1 (stereo not given) , please?
0.139

Similarly, CNCCC(Oc1cccc2c1OCO2)c1ccc(F)cc1 (stereo not given) ?
0.0054

And for CNCCC(Oc1cccc2c1OCO2)c1ccccc1 (stereo not given) ?
0.0042

Lookup COc1cccc(C(CCN(C)C)Oc2cccc3c2OCO3)c1 (stereo not given)
0.268

Same again, this time with Cc1ccc(C(CCN(C)C)Oc2cccc3c2OCO3)cc1 (stereo not given)
0.195

Follow-up item: CNCCC(Oc1cccc2c1OCO2)c1cccc(F)c1 (stereo not given)
0.0075

Entry to check: CN(C)CCC(Oc1cccc2c1OCO2)c1ccc(Cl)cc1 (stereo not given)
0.0104

Let us now turn to CN(C)CCC(Oc1cccc2c1OCO2)c1ccccc1Cl (stereo not given)
0.0195

What do you get for CNCCC(Oc1cccc2c1OCO2)c1ccccc1C (stereo not given) ?
0.0139

Same lookup for NCCC(Oc1cccc2c1OCO2)c1ccccc1 (stereo not given) , please.
0.051

What do we get for COc1ccc(C(CCN(C)C)Oc2cccc3c2OCO3)cc1OC (stereo not given) ?
0.222

What do you have for CNCCC(Oc1cccc2c1OCO2)c1ccc(OC)cc1 (stereo not given) ?
0.0255

Consider next the compound COc1ccc(C(CCN(C)C)Oc2cccc3c2OCO3)cc1 (stereo not given) in the same way.
0.218

Proceed to CNCCC(Oc1cccc2c1OCO2)c1ccccc1Cl (stereo not given)
0.0266

Also need CNCCC(Oc1cccc2c1OCO2)c1cccc(OC)c1 (stereo not given) , thanks.
0.0111

Next: CN(C)CCC(Oc1cccc2c1OCO2)c1cccc(Cl)c1 (stereo not given)
0.0704

Also check COc1ccccc1C(CCN(C)C)Oc1cccc2c1OCO2 (stereo not given)
0.253

`CN(C)CC[C@H](Oc1cccc2c1OCO2)c1ccc(F)cc1` ?
0.0127

Field entry: CNCCC(Oc1cccc2c1OCO2)c1ccc(C)cc1 (stereo not given)
0.0488

Moving on to CNCCC(Oc1cccc2c1OCO2)c1ccccc1OC (stereo not given)
0.0302

Also need CN(C)CCC(Oc1cccc2c1OCO2)c1ccc(C(F)(F)F)cc1 (stereo not given) , thanks.
0.124

// repeat for CN(C)CCC(Oc1cccc2c1OCO2)c1ccc2c(c1)OCO2 (stereo not given) and report
0.0049

Same lookup for CN(C)CCC(Oc1cccc2c1OCO2)c1ccc(Cl)c(Cl)c1 (stereo not given) , please.
0.253

Would you mind doing Cc1ccccc1C(CCN(C)C)Oc1cccc2c1OCO2 (stereo not given) as well?
0.247

Try the compound CNCCC(Oc1cccc2c1OCO2)c1ccc(F)c(F)c1 (stereo not given)
0.0066
